biological target: PDGFRβ intracellular domain protein (Homo sapiens); construct: 125 ng/ml of PDGFRβ intracellular domain protein (UPSTATE); test: Determination of platelet-derived growth factor receptor β (PDGFRβ) kinase inhibitory activity (AlphaScreen)
Sequence (P09619 554-1106 limits assumed): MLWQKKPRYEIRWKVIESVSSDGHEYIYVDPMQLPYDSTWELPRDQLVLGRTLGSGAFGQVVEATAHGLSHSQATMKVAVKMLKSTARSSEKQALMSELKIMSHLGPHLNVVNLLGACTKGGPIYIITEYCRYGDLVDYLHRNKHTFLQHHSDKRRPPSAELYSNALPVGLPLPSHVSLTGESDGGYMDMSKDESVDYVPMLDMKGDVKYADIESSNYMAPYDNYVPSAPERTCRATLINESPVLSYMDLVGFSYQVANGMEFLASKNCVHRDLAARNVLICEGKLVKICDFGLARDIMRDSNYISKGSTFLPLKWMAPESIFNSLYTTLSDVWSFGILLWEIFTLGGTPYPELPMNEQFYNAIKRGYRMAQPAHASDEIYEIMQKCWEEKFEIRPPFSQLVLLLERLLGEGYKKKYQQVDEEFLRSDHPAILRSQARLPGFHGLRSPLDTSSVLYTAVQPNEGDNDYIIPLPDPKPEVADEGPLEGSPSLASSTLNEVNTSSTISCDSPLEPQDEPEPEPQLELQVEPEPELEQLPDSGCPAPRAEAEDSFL
Please go through the items and note down their IC50.

I am curious: what IC50 value has been reported for COc1cc(C(=O)Nc2cc(Oc3ccc4nc(NC(=O)C5CC5)cn4n3)ccc2C)n(C)n1 [Example 302] ?
≤ 500 nM

IC50 lookup needed for Cc1nc(C(=O)Nc2cccc(Oc3ccc4nc(NC(=O)C5CC5)cn4n3)c2)c(C)o1 [Example 117] , thanks.
≤ 500 nM

Which IC50 value belongs to CCn1cc(C(=O)Nc2cc(Oc3ccc4nc(NC(=O)C5CC5)cn4n3)ccc2F)c(C)n1 [Example 161] ?
≤ 500 nM

Which IC50 is reported for this molecule? Cc1cc(C(=O)Nc2cc(Oc3ccc4nc(NC(=O)C5CC5)cn4n3)ccc2F)n(C)n1 [Example 148]
≤ 500 nM

----------
molecular target: VEGFR2 intracellular domain protein (Homo sapiens, UniProt P35968); construct: made in house; host or cells: SF-21 insect cells, recombinant baculovirus BAC-VEGFR2; assay: Determination of vascular endothelial growth factor receptor 2 (VEGFR2) kinase inhibitory activity (AlphaScreen); assay type: biochemical; details: read-out: VEGFR2 kinase inhibitory rate
Sequence (P35968 786-1356 limits assumed): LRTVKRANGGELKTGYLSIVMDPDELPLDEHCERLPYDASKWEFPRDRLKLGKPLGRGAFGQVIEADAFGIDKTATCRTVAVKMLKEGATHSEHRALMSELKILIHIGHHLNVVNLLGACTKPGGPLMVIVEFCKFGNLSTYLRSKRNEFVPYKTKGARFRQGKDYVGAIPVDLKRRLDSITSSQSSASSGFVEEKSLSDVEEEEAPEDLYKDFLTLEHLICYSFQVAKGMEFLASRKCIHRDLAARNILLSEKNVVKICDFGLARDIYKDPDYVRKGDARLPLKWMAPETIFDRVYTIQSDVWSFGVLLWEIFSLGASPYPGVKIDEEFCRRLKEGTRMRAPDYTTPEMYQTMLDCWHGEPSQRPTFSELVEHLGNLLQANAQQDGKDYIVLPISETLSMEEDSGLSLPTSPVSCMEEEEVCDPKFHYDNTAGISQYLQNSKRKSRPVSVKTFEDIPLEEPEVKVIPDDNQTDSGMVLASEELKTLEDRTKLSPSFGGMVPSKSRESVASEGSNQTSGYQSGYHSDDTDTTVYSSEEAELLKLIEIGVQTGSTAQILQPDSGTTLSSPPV
Kindly supply the reported inhibition at 1 µM values for the records listed here.

What value of measured inhibition at 1 µM is listed for Cc1cc(C(=O)Nc2cccc(Oc3ccc4nc(NC(=O)CN(C)C)cn4n3)c2)n(C)n1 ?
≥ 90%

Reported inhibition at 1 µM for COc1cc(C(=O)Nc2cc(Oc3ccc4nc(NC(=O)C5CC5)cn4n3)ccc2F)n(C)n1 : what is it?
≥ 90%

So what's the measured inhibition at 1 µM for this one? Cc1nc(C)c(C(=O)Nc2cc(Oc3ccc4nc(NC(=O)C5CC5)cn4n3)ccc2F)s1
≥ 90%

Name the recorded inhibition at 1 µM for CCc1cc(C(=O)Nc2cc(Oc3ccc4nc(NC(=O)C5CC5)cn4n3)ccc2F)n(C)n1 .
≥ 90%

----------
Could you please report measured IC50 for the items listed next?
biological target: PDGFRβ intracellular domain protein (Homo sapiens); construct: 125 ng/ml of PDGFRβ intracellular domain protein (UPSTATE); assay: Determination of platelet-derived growth factor receptor β (PDGFRβ) kinase inhibitory activity (AlphaScreen)

Entry CCc1cc(C(=O)Nc2cc(Oc3ccc4nc(NC(=O)C5CC5)cn4n3)ccc2Cl)n(C)n1 [Example 247] has what IC50?
≤ 0.5 µM

Which value of IC50 has been reported for CCn1cc(C(=O)Nc2cc(Oc3ccc4nc(NC(=O)C5CC5)cn4n3)ccc2Cl)c(C)n1 [Example 254] in the records?
≤ 0.5 µM

Requested field: IC50. Item: Cc1cc(C(=O)Nc2cccc(Oc3ccc4nc(NC(=O)CN(C)C)cn4n3)c2)n(C)n1 [Example 149]
≤ 0.5 µM

Request the reported IC50 associated with CCc1cc(C(=O)Nc2cc(Oc3ccc4nc(NC(=O)C5CC5)cn4n3)ccc2F)n(C)n1 [Example 208]
≤ 0.5 µM

Given the molecule COCC(=O)Nc1cn2nc(Oc3cccc(NC(=O)c4cc(C)nn4C)c3)ccc2n1 [Example 127] , what is its reported IC50?
≤ 0.5 µM

Bench note: what IC50 did Cc1cc(C(=O)Nc2cccc(Nc3ccc4nc(NC(=O)C5CC5)cn4n3)c2)n(C)n1 [Example 317] show?
≤ 0.5 µM

Recorded IC50 for CCNC(=O)Nc1cccc(Oc2ccc3nc(NC(=O)C4CC4)cn3n2)c1 [Example 103] , please?
≤ 0.5 µM

So what's the measured IC50 for this one? Cc1cc(C(=O)Nc2cccc(Sc3ccc4nc(NC(=O)C5CC5)cn4n3)c2)n(C)n1 [Example 150]
≤ 0.5 µM

Which value of IC50 has been reported for Cc1nc(C)c(C(=O)Nc2cccc(Oc3ccc4nc(NC(=O)C5CC5)cn4n3)c2)s1 [Example 114] in the records?
≤ 0.5 µM

For Cc1nc(C)c(C(=O)Nc2cc(Oc3ccc4nc(NC(=O)C5CC5)cn4n3)ccc2F)o1 [Example 289] , what is its reported IC50?
≤ 0.5 µM

Returns the measured IC50 for the input molecule. Input: CC#CC(=O)Nc1cc(Oc2ccc3nc(NC(=O)C4CC4)cn3n2)ccc1C [Example 241]
≤ 0.5 µM

Name the recorded IC50 for Cc1cccnc1C(=O)Nc1cccc(Oc2ccc3nc(NC(=O)C4CC4)cn3n2)c1 [Example 187] .
≤ 0.5 µM

Param item = CCn1nccc1C(=O)Nc1cc(Oc2ccc3nc(NC(=O)C4CC4)cn3n2)ccc1F [Example 174] ; retrieve measured IC50.
≤ 0.5 µM
